Test system: ParA2-GFP (Vibrio cholerae)
Assay: EMSA
observation.type: Kd (nM)
Give just the number in nM; leave the unit off.

Lookup: Write down Kd measured for item CGAGGTCGACGGTATCGATAAGCTTGATATCGAATTCCTGCAGCCCGGGGGATCCACTAGTTCTAGAGC (double strand) [Cy3-69 bp nsDNA]
Found: 40

---

System: ParA2 K124E (Vibrio cholerae)
Assay: EMSA
observation.type: Kd
Don't forget the unit after the number, please.

Lookup: Write down Kd measured for item CGAGGTCGACGGTATCGATAAGCTTGATATCGAATTCCTGCAGCCCGGGGGATCCACTAGTTCTAGAGC (double strand) [Cy3-69 bp nsDNA]
Found: 452 nM
